- subject_of_test: T1, human Orai1 (human, UniProt Q96D31 1-301)
- T1 construct: on AM1-CHO/hOrai1/hSTIM1-YFP, AM1/hOrai1, HEK-293 transfectants, endogenous on Jurkat and blood cells; in Westerns from cell lysates; also called hOrai1; CRACM1
- experiment: FACS Kd, AM1-CHO/hOrai1/hSTIM1-YFP cells
experimental_readout: pKd
The value called pKd is obtained by taking minus log10 of the concentration in mol/L.

binder	pKd
mAb 2B4.1 (antibody, human IgG2, lambda, V domains shown) VH: QVQLVQSGAEVKKPGASVKVSCKASGYTFTDYYMHWVRQAPGQGLEWMGWINPNSGGTNYVQKFQDRVTMTRDTSITTAYMELTRLRSDDTAVYYCAREEGDYGMDVWGQGTTVTVSS VL: QSVLTQPPSVSGAPGQRVTISCTGSNSNIGTGYDVHWYQKLPGTAPRLLIYSHFNRPSGVPDRFSGSTSGTSASLAITGLQAEDEADYYCQSYDSSLSGSVFGGGTKLTVLG	8.74
mAb 2C1.1 (antibody, human IgG2, lambda, V domains shown, fully human IgG2 lambda, Campaign 1; tested hybridoma-purified and recombinant; also called anti-hOrai1 mAb 2C1.1) VH: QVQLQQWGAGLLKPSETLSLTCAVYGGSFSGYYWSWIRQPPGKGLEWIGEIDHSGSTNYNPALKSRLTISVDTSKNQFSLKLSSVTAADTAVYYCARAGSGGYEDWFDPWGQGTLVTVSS VL: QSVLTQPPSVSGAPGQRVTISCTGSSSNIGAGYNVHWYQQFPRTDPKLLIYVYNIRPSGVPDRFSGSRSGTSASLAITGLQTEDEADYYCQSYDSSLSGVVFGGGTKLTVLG	9.28
mAb 5H3.1 (antibody, human IgG2, lambda, V domains shown, fully human IgG2 lambda, Campaign 2, recombinant) VH: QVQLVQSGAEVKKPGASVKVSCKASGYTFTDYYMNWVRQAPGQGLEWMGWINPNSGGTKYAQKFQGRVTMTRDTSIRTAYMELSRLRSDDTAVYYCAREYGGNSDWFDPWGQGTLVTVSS VL: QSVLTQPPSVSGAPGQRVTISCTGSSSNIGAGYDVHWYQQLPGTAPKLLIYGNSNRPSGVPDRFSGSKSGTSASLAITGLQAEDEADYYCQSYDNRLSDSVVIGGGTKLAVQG	9.19

As a next step, examine the binder that follows.
*Q* Suppose we examine the binder mAb 2D2.1 (antibody, human IgG2, lambda, V domains shown, fully human IgG2 lambda, Campaign 1; also called mAb 2D.1) VH: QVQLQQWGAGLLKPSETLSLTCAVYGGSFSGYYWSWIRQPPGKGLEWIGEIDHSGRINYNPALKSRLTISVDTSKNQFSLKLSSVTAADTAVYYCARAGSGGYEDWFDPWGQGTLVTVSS VL: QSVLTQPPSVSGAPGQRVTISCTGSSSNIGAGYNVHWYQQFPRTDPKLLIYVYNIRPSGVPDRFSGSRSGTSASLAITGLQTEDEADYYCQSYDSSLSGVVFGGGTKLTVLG ; what pKd value has been reported?
*A* 11.01
